- experimental.target: T1, human ARG2 (Homo sapiens, UniProt P78540, E275H/R327K)
- T1 construct: His10 (after a GGG linker) (C); made in house; host or cells: E. coli BL21 (DE3)
- T1 sequence (P78540 23-354 E275H/R327K): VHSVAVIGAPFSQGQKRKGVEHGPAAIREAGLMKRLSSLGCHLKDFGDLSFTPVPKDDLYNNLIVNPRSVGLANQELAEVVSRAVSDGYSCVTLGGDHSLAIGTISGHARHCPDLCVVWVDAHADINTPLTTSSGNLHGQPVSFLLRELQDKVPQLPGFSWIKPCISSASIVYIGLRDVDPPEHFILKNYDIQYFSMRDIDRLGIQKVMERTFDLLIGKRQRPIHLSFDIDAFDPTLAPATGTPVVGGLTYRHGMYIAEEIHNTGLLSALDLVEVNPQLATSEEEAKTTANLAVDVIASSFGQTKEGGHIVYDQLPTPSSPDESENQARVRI
- procedure.details: Bio-Layer Interferometry (OctetRED) binding kinetics, human ARG2
- experimental.context: Fab as analyte; streptavidin capture; analyte 1.8 to 120 nM; affinity-matured antibodies
Documented ka across a set of molecules
Only the number, expressed in M⁻¹ s⁻¹, is required.

[
  {
    "molecule": "C0021065: anti-ARG2 antibody, VH SEQ ID NO: 72, VL SEQ ID NO: 77 (antibody, listed as Homo sapiens, V domains shown, C0021065) VH: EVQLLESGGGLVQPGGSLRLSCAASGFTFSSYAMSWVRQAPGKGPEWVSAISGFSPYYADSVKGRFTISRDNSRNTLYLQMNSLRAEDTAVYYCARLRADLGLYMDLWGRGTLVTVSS VL: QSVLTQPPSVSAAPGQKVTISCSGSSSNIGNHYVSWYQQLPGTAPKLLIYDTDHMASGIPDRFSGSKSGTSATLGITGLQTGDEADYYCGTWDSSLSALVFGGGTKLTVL",
    "measured.number": 409000
  }
]

Below: the item to evaluate.
Q) Quick one: ka for C0021022: anti-ARG2 antibody, VH SEQ ID NO: 42, VL SEQ ID NO: 47 (antibody, listed as Homo sapiens, V domains shown, C0021022) VH: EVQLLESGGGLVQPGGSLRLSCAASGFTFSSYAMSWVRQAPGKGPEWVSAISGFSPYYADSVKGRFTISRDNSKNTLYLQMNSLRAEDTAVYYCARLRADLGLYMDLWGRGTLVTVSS VL: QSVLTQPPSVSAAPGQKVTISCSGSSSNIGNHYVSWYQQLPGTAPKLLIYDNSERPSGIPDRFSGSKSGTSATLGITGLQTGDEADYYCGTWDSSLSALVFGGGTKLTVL ?
A) 412000

Values compiled from patent US20220403048A1.
